System: Fe2+-induced lipid peroxidation in microsomes from an S9 liver fraction
Assay: Inhibition of Fe(II)-induced microsomal lipid peroxidation (TBARS)
Assay type: biochemical
Conditions: TBARS at 532 nm, Table 2 head prints no unit, IC50 in µg/mL
ENDPOINT: LPO (IC50, inhibition of Fe2+-induced lipid peroxidation) (mg/L)

{"columns": ["COMPOUND", "UNITS_LABEL", "QUALIFIER_SYMBOL", "EXPERIMENTAL_VALUE"],
 "data": [
  ["COc1cc2oc(-c3ccccc3)c(OC)c(=O)c2c(O)c1OC [Compound C-4, 5-hydroxy-3,6,7-trimethoxyflavone]", "mg/L", "=", 14.90],
  ["C/C=C(\\C)C(=O)Oc1c(O)c(OC)c(O)c2c(=O)c(OC)c(-c3ccccc3)oc12", "mg/L", "=", 13.123],
  ["COc1c(OC)c(O)c2c(=O)c(OC)c(-c3ccccc3)oc2c1OC [Compound C-3, 5-hydroxy-3,6,7,8-tetramethoxyflavone]", "mg/L", "=", 11.64],
  ["O=C(O[C@@H]1Cc2c(O)cc(O)cc2O[C@@H]1c1cc(O)c(O)c(O)c1)c1cc(O)c(O)c(O)c1 [EGCG, Epigallocatechin gallate, reference compound]", "mg/L", "=", 0.929],
  ["C=C1CC23CCC4C(C)(C(=O)O)CCCC4(C)C2CCC1C3 (stereo not drawn)", "mg/L", ">", 100],
  ["C=C1C2CCC3C4(C)CCCC(C)(C(=O)O)C4CCC3(C2)C1O (stereo not drawn)", "mg/L", ">", 100]
]}
